// provenance: patent US8765720B2

- Assay text: in vitro
- Test context: human
Property measured: viability at 48 h, 0.009 µM

Compound	Data value
CC(C)C[C@H](NC(=O)[C@@H](NC(=O)c1cccc(-c2ccccc2)n1)[C@@H](C)O)B(O)O [COMPOUND 1]	~75%
